Method Notes: NIH-3T3 fibroblast cytotoxicity, dose response, cytotoxicity control, cell-based, fluorescence, Alamar Blue, secondary assay (AID 2327);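 note: NIH-3T3 mouse fibroblasts cultured with fluconazole at 8 µg/mL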
Type: functional
Calls of active or inactive are those of the source. Cut-off read from the data, not from the text of the source: actives have a measured EC50 and inactives only a lower limit.
Exercise: state measured EC50 for each of the compounds provided.

Prompt: Fill in the blank: the reported EC50 of Cc1ccc(NC(=S)c2nc3ccccc3[nH]2)cc1 is ____.
Response: > 160 µM (inactive)

Prompt: Also CCn1c(C)nc2cc(C(=O)NN=C(S)Nc3ccc(Cl)cc3Cl)ccc21 , if possible.
Response: > 160 µM (inactive)

Prompt: And O=C(O)c1cnc(-c2ccccc2)nc1Sc1ccc(Cl)cc1 ?
Response: 98.3 µM (inconclusive)

Prompt: Param item: CC(C)NC(=S)N/N=C/c1ccc(C(C)(C)C)cc1
Response: 91.3 µM (inconclusive)

Prompt: Now the compound Cc1cccc(C(=O)NC(=S)NNC(=O)Cc2ccccc2)c1
Response: > 150 µM (inactive)

Prompt: Then this compound: O=C(CSc1nc(-c2ccccc2)cs1)Nc1nccs1
Response: > 160 µM (inactive)
